These entries and their values trace back to patent EP0373216A1.

Tested on: K. pneumoniae PC I 602
assay protocol: In vitro antibacterial activity, agar disc dilution method
Type: cell-based
details: Klebsiella pneumoniae, PCI602; K. pneumoniae PC I 602; Mueller Hinton agar, 10^6/ml, 37°C for 16 hours; read-out: minimum growth inhibitory concentration (MIC)
Could you please report measured MIC for the items listed next?
Answers are plain numbers, in µg/mL.

Below are worked cases with known answers.
compound	target desc	observed value
Nc1nc(/C(=N/Oc2ccc(-c3ccccc3)cc2)C(=O)N[C@@H]2C(=O)N3C(C(=O)[O-])=C(C[n+]4ccc5cc(O)c(O)cc5c4)CS[C@H]23)cs1 [Compound IV]	K. pneumoniae PC I 602	0.02
Nc1nc(/C(=N/Oc2cccc(C(=O)O)c2)C(=O)N[C@@H]2C(=O)N3C(C(=O)[O-])=C(C[n+]4ccc5cc(O)c(O)cc5c4)CS[C@H]23)cs1 [Compound VIII]	K. pneumoniae PC I 602	0.03
Nc1nc(/C(=N/Oc2ccccc2)C(=O)N[C@@H]2C(=O)N3C(C(=O)[O-])=C(C[n+]4cc(C(=O)O)c5cc(O)c(O)cc5c4Cl)CS[C@H]23)cs1 [Compound VII]	K. pneumoniae PC I 602	0.03

Value sought for every listed compound: MIC.
1. Nc1nc(/C(=N/Oc2ccc(CC(=O)O)cc2)C(=O)N[C@@H]2C(=O)N3C(C(=O)[O-])=C(C[n+]4ccc5cc(O)c(O)cc5c4)CS[C@H]23)cs1 [Compound V]
2. Nc1nc(/C(=N/Oc2ccccc2)C(=O)N[C@@H]2C(=O)N3C(C(=O)[O-])=C(C[n+]4cc(C(=O)O)c5cc(O)c(O)cc5c4)CS[C@H]23)cs1 [Compound VI]

Result ::
0.03
0.02

====

Test system: P. aeruginosa NCTC 1049
assay protocol: In vitro antibacterial activity, agar disc dilution method
Type: cell-based
details: Pseudomonas aeruginosa, NCTC1049; P. aeruginosa NCTC 1049; Mueller Hinton agar, 10^6/ml, 37°C for 16 hours; read-out: minimum growth inhibitory concentration (MIC)
assay metric: MIC
Could you give the number and then its unit, please?

Below are worked cases with known answers.
compound	MIC
CC(=O)Oc1cc2cc[n+](CC3=C(C(=O)[O-])N4C(=O)[C@@H](NC(=O)/C(=N\Oc5ccccc5)c5csc(N)n5)[C@H]4SC3)cc2cc1O	0.1 µg/mL
CC(=O)Oc1cc2cc[n+](CC3=C(C(=O)[O-])N4C(=O)[C@@H](NC(=O)/C(=N\Oc5ccccc5)c5csc(N)n5)[C@H]4SC3)cc2cc1OC(C)=O	0.1 µg/mL
CC(C)(O/N=C(\C(=O)N[C@@H]1C(=O)N2C(C(=O)[O-])=C(C[n+]3ccc4cc(O)c(O)cc4c3)CS[C@H]12)c1csc(N)n1)C(=O)O [Compound A, reference compound]	0.02 µg/mL
Nc1nc(/C(=N/Oc2ccc(CC(=O)O)cc2)C(=O)N[C@@H]2C(=O)N3C(C(=O)[O-])=C(C[n+]4ccc5cc(O)c(O)cc5c4)CS[C@H]23)cs1	0.05 µg/mL

Could you now consider this next compound?
Query :: Could you share which MIC value was measured for Nc1nc(/C(=N/Oc2ccccc2)C(=O)N[C@@H]2C(=O)N3C(C(=O)[O-])=C(C[n+]4cc(C(=O)O)c5cc(O)c(O)cc5c4)CS[C@H]23)cs1 ?
Result :: 3.1 µg/mL

====

Could you please report measured MIC for the items listed next?
Test system: M. euteus ATCC 9341
assay protocol: In vitro antibacterial activity, agar disc dilution method
Assay type: cell-based
details: M. euteus ATCC 9341; Mueller Hinton agar, 10^6/ml, 37°C for 16 hours; read-out: minimum growth inhibitory concentration (MIC)
Numbers only, in µg/mL.

Below are worked cases with known answers.
substance smiles	target desc	MIC (µg/mL)
Nc1nc(/C(=N/Oc2ccccc2)C(=O)N[C@@H]2C(=O)N3C(C(=O)[O-])=C(C[n+]4cc(C(=O)O)c5cc(O)c(O)cc5c4)CS[C@H]23)cs1	M. euteus ATCC 9341	0.8
Nc1nc(/C(=N/Oc2ccccc2)C(=O)N[C@@H]2C(=O)N3C(C(=O)[O-])=C(C[n+]4ccc5cc(O)c(O)cc5c4)CS[C@H]23)cs1	M. euteus ATCC 9341	0.1
Nc1nc(/C(=N/Oc2cccc(C(=O)O)c2)C(=O)N[C@@H]2C(=O)N3C(C(=O)[O-])=C(C[n+]4ccc5cc(O)c(O)cc5c4)CS[C@H]23)cs1	M. euteus ATCC 9341	1.6
CC(=O)Oc1cc2cc[n+](CC3=C(C(=O)[O-])N4C(=O)[C@@H](NC(=O)/C(=N\Oc5ccccc5)c5csc(N)n5)[C@H]4SC3)cc2cc1OC(C)=O	M. euteus ATCC 9341	1.6

Could you now consider this next molecule?
Query :: Could you share which MIC value was measured for Nc1nc(/C(=N/Oc2ccc(Cl)cc2)C(=O)N[C@@H]2C(=O)N3C(C(=O)[O-])=C(C[n+]4ccc5cc(O)c(O)cc5c4)CS[C@H]23)cs1 ?
Result :: 0.2
